Target: T1, human CTLA-4 expressed on cells (293-hCTLA-4 cells; CTLA-4-expressing CHO-K1 cells) (human, UniProt P16410 36-223)
T1 construct: also called CD152; cell-expressed CTLA-4
T1 sequence: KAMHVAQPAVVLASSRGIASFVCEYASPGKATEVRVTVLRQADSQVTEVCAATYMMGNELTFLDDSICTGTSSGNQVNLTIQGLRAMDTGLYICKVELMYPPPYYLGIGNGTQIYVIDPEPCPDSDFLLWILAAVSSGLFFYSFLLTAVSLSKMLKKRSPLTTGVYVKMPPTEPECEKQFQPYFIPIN
Assay: cell-based blocking assay, flow cytometry: % blocking of biotinylated B7.1 ECD-Fc binding to 293-hCTLA-4 cells
Measured IC50 (read off the curve), listed per entry for reference.

CL5 (antibody, human IgG1, V domains shown, Human heavy-chain-only antibody (HCAb): two heavy chains, no light chain; also called HCAb clone 5) VH: EVQLAETGGGLIQPGGSLRLSCAVSGFNVSKNYMSWVRQVPGKGLEWVAVVYSGGSKTYADSVKGRFILSRDNSDNTLYLQMNNLRAEDTAVYYCARAVPHSPSSFDIWGQGTMVTVSS = ~10 nM
CL30 (antibody, human IgG1, V domains shown, Human heavy-chain-only antibody (HCAb): two heavy chains, no light chain; also called clone 30) VH: EVQLEETGGDLIQPGGSLRLSCTASGFNVSRIYMSWVRQAPGKGLEWVSVIYSGGSIYYADSVRGRFTISRDSSTNTVYLQMNSLRAEDSAVYYCARAVPHAPSNFDKWGQGTRVTVSS = ~10 nM

Given the entry CL11 (antibody, human IgG1, V domains shown, Human heavy-chain-only antibody (HCAb): two heavy chains, no light chain; also called clone 11) VH: EVQLEETGGDLIQPGGSLRLSCTASGFNVSRIYMSWVRQAPGKGLEWVSVIYSGGSIYYADSVRGRFTISRDSSTNTVFLQMNSLRAEDSAVYYCARAVPSAPSSFDIWGQGTMVTVSS , report its measured IC50 (read off the curve).
10 to 20 nM

Okay, and CL22 (antibody, human IgG1, V domains shown, Human heavy-chain-only antibody (HCAb): two heavy chains, no light chain; also called clone 22) VH: EVQLVETGGGLIQPGGSLRLSCAVSGFTVRNNYMSWARQVPGKGLEWVSVIYSGGSITYADSVKGRFIISRDNSNNTLYLQMNGLRAEDTAVYYCARAVPHAPSAFDIWGQGTMVTVSS ?
~10 nM
